# System: SW48 human colorectal cancer cells
# Test details: Calculated free drug potency in SW48 cell assay, corrected with media free fraction (Example C)
# Format: cell-based
# Experimental parameters: Homo sapiens, SW48, SW48 pCC50 corrected with measured free fraction in cell assay media
Counter-ions that a name gives are not always drawn.
Recorded measurements of CC50, one per entry
Answer with a number only, understood to be in µM.

• Cc1cc(N(C)S(=O)(=O)c2ccc3c(c2)nc(C)n3C)ccc1[C@H]1CCC[C@@H](C(=O)Nc2ccc(C(F)(F)F)cc2F)[C@@H]1C(=O)O (stereo in doubt) [Example 386] = 0.2

[Q] So what's the measured CC50 for this one? Cc1nc2cc(S(=O)(=O)N(C)c3ccc([C@H]4CCC[C@@H](C(=O)Nc5ccc(C(F)(F)F)cc5F)[C@@H]4C(=O)O)cc3)ccc2n1CCN [Example 277]
[A] 0.309

[Q] Item under review: Cc1nc2cc(S(=O)(=O)N(C)c3ccc([C@H]4C[C@@H](OCC5CCOCC5)C[C@@H](C(=O)Nc5ccc(C(F)(F)F)cc5F)[C@@H]4C(=O)O)cc3)ccc2n1C (stereo in doubt) [Example 355] . Reported CC50?
[A] 0.0129

[Q] I would be grateful if you could share the reported CC50 for CN(c1ccc([C@H]2CCC[C@@H](C(=O)Nc3ccc(C(F)(F)F)cc3F)[C@@H]2C(=O)O)cc1)S(=O)(=O)c1ccc2c(c1)nc(CCN)n2C [Example 267, hydrochloride] .
[A] 0.178

[Q] Field request: CC50 | item: CCc1ccc(NC(=O)[C@@H]2CCC[C@H](c3ccc(N(C)S(=O)(=O)c4ccc5c(c4)nc(C)n5C)cc3)[C@H]2C(=O)O)cc1 [Example 196]
[A] 0.0955

====

# Tested on: SW48 human colorectal cancer cells (MSI-H cancer cells)
# Test details: SW48 cell viability, CellTiter-Glo, 120 hours (Example B)
# Experimental parameters: Homo sapiens, SW48, 120 h, read-out: SW48 pCC50, SW48 cell viability, 120 hours incubation (converted); Table 2
Metric name: log10 CC50 (log10 of the value in nM)
Scale: decimal log of CC50, CC50 in nM.

# example entries with known answers
• Cc1nc2cc(S(=O)(=O)Nc3ccc([C@@H]4CCC[C@H](C(=O)Nc5ccc(C(F)(F)F)cc5F)[C@H]4C(=O)O)cc3)ccc2n1C (single isomer, unassigned) = 2.70
• Cc1nc2cc(S(=O)(=O)N(C)c3ccc([C@H]4C[C@H](N5CC[C@@H](F)C5)C[C@@H](C(=O)Nc5ccc(C(F)(F)F)cc5F)[C@@H]4C(=O)O)cc3)ccc2n1C (stereo in doubt) = 3.90

[Q] Bench note: what log10 CC50 did CN1CCC[C@H](c2cccc(S(=O)(=O)N(C)c3ccc([C@H]4CCC[C@@H](COc5ccc(C(F)(F)F)cc5)[C@@H]4C(=O)O)cc3)c2)C1 (single isomer, unassigned) show?
[A] 4.00

[Q] Entry Cc1nc2cc(S(=O)(=O)N(C)c3ccc([C@H]4CCC[C@@H](C(=O)Nc5ccc(C(F)(F)F)cc5F)[C@@H]4C(=O)O)cc3)cc(Cl)c2n1C has what log10 CC50?
[A] 2.80

[Q] Give the measured log10 CC50 of COC[C@@H]1C[C@H](c2ccc(N(C)S(=O)(=O)c3ccc4c(c3)nc(C)n4C)cc2)[C@@H](C(=O)O)[C@H](C(=O)Nc2ccc(C(F)(F)F)cc2F)C1 (single isomer, unassigned) .
[A] 2.50

[Q] log10 CC50 for CN(c1ccc([C@H]2CCC[C@@H](C(=O)Nc3ccc(C(F)(F)F)cc3F)[C@@H]2C(=O)O)cc1)S(=O)(=O)c1ccc2c(c1)nc(CO)n2C ?
[A] 2.30

[Q] Reported log10 CC50 for CN(c1ccc([C@H]2CCC[C@@H](C(=O)Nc3ccc(C(F)(F)F)cc3F)[C@@H]2C(=O)O)cc1)S(=O)(=O)c1ccc(O)c(C=O)c1 : what is it?
[A] 3.60

[Q] Fill in the blank: the reported log10 CC50 of Cc1nc2cc(S(=O)(=O)N(C)c3ccc([C@H]4C[C@@H](Oc5ccccc5)C[C@@H](C(=O)Nc5ccc(C(F)(F)F)cc5F)[C@@H]4C(=O)O)cc3)ccc2n1C (single isomer, unassigned) is ____.
[A] 3.30

====

# Target: recombinant full-length WRN protein (1-1432) (Homo sapiens, UniProt Q14191)
# Construct: recombinant full-length WRN protein (1-1432)
# Sequence (Q14191 whole entry): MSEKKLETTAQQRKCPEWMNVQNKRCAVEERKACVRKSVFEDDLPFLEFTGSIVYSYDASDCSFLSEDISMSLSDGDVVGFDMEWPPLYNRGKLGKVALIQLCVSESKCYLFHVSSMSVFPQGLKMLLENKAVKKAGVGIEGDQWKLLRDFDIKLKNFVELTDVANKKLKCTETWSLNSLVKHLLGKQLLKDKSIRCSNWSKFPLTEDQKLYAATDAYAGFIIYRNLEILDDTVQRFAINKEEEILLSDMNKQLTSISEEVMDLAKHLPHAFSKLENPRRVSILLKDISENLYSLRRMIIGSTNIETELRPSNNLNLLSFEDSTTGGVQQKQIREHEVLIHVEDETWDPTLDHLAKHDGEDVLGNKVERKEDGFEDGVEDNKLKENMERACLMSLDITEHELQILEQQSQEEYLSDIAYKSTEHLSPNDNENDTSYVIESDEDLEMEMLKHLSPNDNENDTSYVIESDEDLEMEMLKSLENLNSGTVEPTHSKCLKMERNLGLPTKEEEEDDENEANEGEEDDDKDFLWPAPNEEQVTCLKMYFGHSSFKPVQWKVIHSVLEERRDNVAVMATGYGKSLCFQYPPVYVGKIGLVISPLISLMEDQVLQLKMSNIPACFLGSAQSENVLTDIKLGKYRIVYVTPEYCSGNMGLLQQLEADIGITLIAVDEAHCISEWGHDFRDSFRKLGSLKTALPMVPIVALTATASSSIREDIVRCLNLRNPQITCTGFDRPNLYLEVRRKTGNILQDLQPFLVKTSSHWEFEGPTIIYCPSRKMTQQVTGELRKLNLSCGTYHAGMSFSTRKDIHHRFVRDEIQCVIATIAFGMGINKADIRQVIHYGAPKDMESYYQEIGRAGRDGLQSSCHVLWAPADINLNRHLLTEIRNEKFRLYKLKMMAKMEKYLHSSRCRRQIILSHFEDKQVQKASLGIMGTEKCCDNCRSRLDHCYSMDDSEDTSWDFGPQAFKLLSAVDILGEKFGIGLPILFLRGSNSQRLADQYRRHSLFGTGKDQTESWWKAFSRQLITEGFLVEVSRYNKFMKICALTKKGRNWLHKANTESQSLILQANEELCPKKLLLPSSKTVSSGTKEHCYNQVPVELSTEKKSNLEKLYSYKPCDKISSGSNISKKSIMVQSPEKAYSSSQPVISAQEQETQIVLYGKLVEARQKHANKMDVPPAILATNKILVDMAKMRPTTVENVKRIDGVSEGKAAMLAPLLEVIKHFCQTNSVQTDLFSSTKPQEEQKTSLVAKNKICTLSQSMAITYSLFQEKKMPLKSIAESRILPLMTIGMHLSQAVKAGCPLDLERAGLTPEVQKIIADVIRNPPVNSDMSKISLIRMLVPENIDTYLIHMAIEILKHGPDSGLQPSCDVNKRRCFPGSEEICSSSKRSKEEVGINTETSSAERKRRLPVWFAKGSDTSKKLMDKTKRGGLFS
# Test details: WRN unwinding activity, fluorogenic 384-well assay (Example A)
# Assay type: biochemical
# Experimental parameters: WRN unwinding activity, 4 hr; Table 2; read-out: 4 hr UNW pIC50 (converted)
Structures can show the parent of a compound that is named as a salt.
Metric name: IC50 (nM)
The reply should be a number in nM, with the unit left off.

• CN(c1ccc([C@H]2CCC[C@@H](C(=O)Nc3ccc(C(F)(F)F)cc3F)[C@@H]2C(=O)O)cc1)S(=O)(=O)c1ccc2c(c1)nc(CO)n2C = 1.58
• O=C(Cc1cccc(-c2ccc([C@H]3CCC[C@@H](C(=O)Nc4ccc(C(F)(F)F)cc4F)[C@@H]3C(=O)O)cc2)c1)NC1CC1 = 6310
• Cc1nc2cc(S(=O)(=O)N(C)c3ccc([C@H]4CCC[C@@H](C(=O)Nc5ccc(C(F)(F)F)cc5F)[C@@H]4C(=O)O)cc3)cc([C@@H]3CCCNC3)c2n1C (single isomer, unassigned) [Example 268, hydrochloride] = 0.794

Now, please, on to the next compound.
[Q] Name the recorded IC50 for COC(=O)c1sccc1-c1ccc([C@H]2CCC[C@@H](C(=O)Nc3ccc(C(F)(F)F)cc3F)[C@@H]2C(=O)O)cc1 .
[A] 126

====

# Test system: SW48 human colorectal cancer cells (MSI-H cancer cells)
# Test details: SW48 cell viability, CellTiter-Glo, 120 hours (Example B)
# Experimental parameters: Homo sapiens, SW48, 120 h, read-out: SW48 pCC50, SW48 cell viability, 120 hours incubation (converted); Table 2
Reported log10 of CC50 values follow for various molecules
# log10 transformed; quantity=CC50; unit=µM

Example molecules with recorded log10 of CC50:
- O=C(O)[C@@H]1[C@@H](c2ccc(-c3ccccc3)cc2)CCC[C@H]1C(=O)Nc1ccc(C(F)(F)F)cc1F: 1.20
- CN1CCc2c(cccc2S(=O)(=O)N(C)c2ccc([C@H]3CCC[C@@H](C(=O)Nc4ccc(C(F)(F)F)cc4F)[C@@H]3C(=O)O)cc2)C1: 0.40
- Cc1nc2cc(S(=O)(=O)N(C)c3ccc([C@@H]4CCC[C@H](C(=O)Nc5ccc(C(F)(F)F)cn5)[C@H]4C(=O)O)cc3)ccc2n1C (relative stereo): -0.20

[Q] Please report the recorded log10 of CC50 for Cc1nc2cc(S(=O)(=O)N(C)c3ccc([C@H]4C[C@@H](N5CCCCC5)C[C@@H](C(=O)Nc5ccc(C(F)(F)F)cc5F)[C@@H]4C(=O)O)cc3)ccc2n1C (relative stereo) .
[A] -0.40

====

# Target: recombinant full-length WRN protein (1-1432) (Homo sapiens, UniProt Q14191)
# Construct: recombinant full-length WRN protein (1-1432)
# Test details: WRN unwinding activity, fluorogenic 384-well assay (Example A)
# Type: biochemical
# Experimental parameters: WRN unwinding activity, 4 hr; Table 2; read-out: 4 hr UNW pIC50 (converted)
Where a name gives a salt, the structure may show the parent alone.
Here the recorded IC50 is given for each entry.
Response body: numeric value in nM, unit text excluded.

Guide cases for IC50, answers given:
* Cc1nc2cc(S(=O)(=O)N(C)c3ccc([C@@H]4C[C@H](N5CC[C@H](F)C5)C[C@H](C(=O)Nc5ccc(C(F)(F)F)cc5F)[C@H]4C(=O)O)cc3)ccc2n1C (stereo in doubt) [Example 378] | 50.1
* Cc1nsc(-c2ccc([C@H]3CCC[C@@H](C(=O)Nc4ccc(C(F)(F)F)cc4F)[C@@H]3C(=O)O)cc2)c1O [Example 28] | 31.6

[Q] May I ask what IC50 has been recorded for Cc1ncccc1-c1ccc([C@H]2CCC[C@@H](C(=O)Nc3ccc(C(F)(F)F)cc3F)[C@@H]2C(=O)O)cc1 [Example 13, formic acid salt] ?
[A] 63.1

====

# Target: recombinant full-length WRN protein (1-1432) (Homo sapiens)
# Construct: recombinant full-length WRN protein (1-1432)
# Test details: WRN unwinding activity, fluorogenic 384-well assay (Example A)
# Type: biochemical
# Experimental parameters: WRN unwinding activity, 4 hr; Table 2; read-out: 4 hr UNW pIC50 (converted)
Where a name gives a salt, the structure may show the parent alone.
Items are presented alongside their recorded log10 IC50.
// stored as log10 of IC50 expressed in nM

• Cc1nc2cc(S(=O)(=O)N(C)c3ccc([C@H]4CCC[C@@H](C(=O)Nc5ccc(C(F)(F)F)cc5F)[C@@H]4C(=O)O)cc3)cc(CCN)c2n1C [Example 289, hydrochloride] = 0.20
• O=C(O)[C@@H]1[C@@H](c2ccc(-c3ccncc3)cc2)CCC[C@H]1C(=O)Nc1ccc(C(F)(F)F)cc1F [Example 7] = 2.00

[Q] // lookup log10 IC50 | system=recombinant full-length WRN protein (1-1432) (Homo sapiens) | key= CN(c1ccc([C@H]2CCC[C@@H](C(=O)Nc3ccc(C(F)(F)F)cc3F)[C@@H]2C(=O)O)cc1)S(=O)(=O)c1ccc(C2CCN(C(=O)OC(C)(C)C)CC2)cc1 [Example 115]
[A] 0.70

[Q] Return log10 IC50 measured with recombinant full-length WRN protein (1-1432) (Homo sapiens) given this compound: CN(c1ccc([C@H]2CCC[C@@H](C(=O)Nc3ccc(C(F)(F)F)cc3F)[C@@H]2C(=O)O)cc1)S(=O)(=O)c1ccc2c(c1)nc(CCN)n2C [Example 267, hydrochloride]
[A] 0.00

[Q] Find the measured log10 IC50: item COC12CC(CO[C@@H]3C[C@H](c4ccc(N(C)S(=O)(=O)c5ccc6c(c5)nc(C)n6C)cc4)[C@@H](C(=O)O)[C@H](C(=O)Nc4ccc(C(F)(F)F)cc4F)C3)(C1)C2 (relative stereo) [Example 332] , target or system recombinant full-length WRN protein (1-1432) (Homo sapiens).
[A] 0.60

[Q] Item Cc1nc2cc(S(=O)(=O)N(C)c3ccc([C@H]4CCC[C@@H](C(=O)Nc5ccc(C(F)(F)F)cc5)[C@@H]4C(=O)O)cc3)ccc2n1C [Example 173] with recombinant full-length WRN protein (1-1432) (Homo sapiens) - log10 IC50?
[A] 0.70

[Q] Record lookup: for recombinant full-length WRN protein (1-1432) (Homo sapiens), what log10 IC50 belongs to Cc1nc2cc(S(=O)(=O)N(C)c3ccc([C@@H]4C[C@H](OC[C@H]5COCCO5)C[C@H](C(=O)Nc5ccc(C(F)(F)F)cc5F)[C@H]4C(=O)O)cc3)ccc2n1C (stereo in doubt) [Example 328] ?
[A] 2.10

Numbers sourced from patent US12662451B2.
